B1: FBXO3 (parent)
chain: HDPLWRRHCKKYWLISEEEKTQKN

# Variants of: B1
# ASSAY_COMMENT: protein stability index of a GFP-peptide fusion (GPS, HEK-293T) (PSI 1-6); higher = more stable;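 further: lentivirally expressed fusions sorted by FACS into six bins by GFP to DsRed ratio, PSI derived from sequencing read proportions per bin multiplied by bin number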
# ASSAY_CONTEXT: c terminus: a fixed tail appended
TEST_READOUT: protein stability index
// no unit string in output, number only

K11Y    2.31
H1A    3.78
L4I    2.93
W13N    4.37
E19R    2.94
S16C    2.99

Task: I would be grateful if you could share the reported protein stability index for H8W .
Result: 1.88
